Cited source for all entries: ChEMBL document CHEMBL1201862

- Test system: OVCAR-5
- test-name: NCI tumour cell line growth inhibition, 48 h
Activity calls are given as the source filed them. Rule as the data show it: active = GI50 up to about 1.1 µM and inactive = higher.
Consider the following compounds; for each one, report its GI50.

Query block: Value lookup for GI50; key = CC1=C(SC#N)S(=O)(=O)N(c2ccccc2)C(C)=C1SC#N
Result block: 39.4 µM (inactive)

Query block: Value lookup for GI50; key = CCCCc1ccc(N2C(=O)c3cc([N+](=O)[O-])cnc3S2(=O)=O)cc1
Result block: > 100 µM (inactive)

Query block: Value lookup for GI50; key = COc1ccc(/C=C\c2cc(OC)c(OC)c(OC)c2)cc1OC(=O)NCCN(C)C
Result block: 0.00764 µM (active)

Query block: Value lookup for GI50; key = O=C(c1cc(Cl)cc(Cl)c1)N(C(=S)OC12CC3CC(CC(C3)C1)C2)c1ccccc1
Result block: 46.3 µM (inactive)

Query block: Value lookup for GI50; key = CN/C(=N\C#N)N(Cc1ccccc1)Cc1ccccc1
Result block: > 100 µM (inactive)

Query block: Value lookup for GI50; key = COc1cc2oc(-c3ccc(O)cc3)cc(=O)c2c(OC)c1OC
Result block: > 100 µM (inactive)

----------
- Test system: PC-3
- test-name: NCI tumour cell line growth inhibition, 48 h
Calls of active or inactive are those of the source. Rule as the data show it: active = GI50 up to about 1.1 µM and inactive = higher.
Outcome field: choose from t for active, f for inactive

Query block: What classification did CN(C)CC/C=C1\c2ccccc2Sc2ccc(Cl)cc21 end up with in this test?
Result block: f

Query block: What classification did CCOC(=O)C(=CNc1ccc(F)c(F)c1)C(=O)OCC end up with in this test?
Result block: f

Query block: What classification did CCOP(=O)(OCC)C(Cc1ccccc1)N=C(c1ccccc1)c1ccccc1 (stereo not given) end up with in this test?
Result block: f

Query block: What classification did CCc1ccc(NCc2cc(OC)c(OC)c(OC)c2)cc1 end up with in this test?
Result block: t

Query block: What classification did CCCCc1ccc(N2C(=O)c3cc([N+](=O)[O-])cnc3S2(=O)=O)cc1 end up with in this test?
Result block: f

Query block: What classification did Cc1cn(C2CC(O)C(CO)O2)c(=O)[nH]c1=O (stereo not given) end up with in this test?
Result block: f

Query block: What classification did CC(C)CC(N)C(=O)O (stereo not given) end up with in this test?
Result block: f

Query block: What classification did Nc1ccc2c(SCC(=O)Nc3ccccc3-c3ccccc3NC(=O)CSc3c4ccccc4nc4cc(N)ccc34)c3ccccc3nc2c1 end up with in this test?
Result block: f

Query block: What classification did COC(O)C12OC3CO[Si](C(C)C)(C(C)C)O[Si](C(C)C)(C(C)C)OC3C1Oc1nc(=O)ccn12 (stereo not given) end up with in this test?
Result block: f

Query block: What classification did CCN(CC)CCC(=O)N1C/C(=C/c2ccccc2)C(=O)/C(=C\c2ccccc2)C1 end up with in this test?
Result block: t

----------
Consider the following compounds; for each one, report its GI50.
- Test system: OVCAR-3
- test-name: NCI tumour cell line growth inhibition, 48 h
The source made the active and inactive calls. Cut-off read from the data, not from the text of the source: active = GI50 up to about 1.1 µM and inactive = higher.

Query block: Value lookup for GI50; key = COc1ncnc2c(Cl)c(C(O)c3ccccc3)c(Cl)cc12 (stereo unspecified)
Result block: 43.8 µM (inactive)

Query block: Value lookup for GI50; key = O=C1CSC(c2cccs2)N1c1nc2cc3sc(N4C(=O)CSC4c4cccs4)nc3cc2s1 (stereo unspecified)
Result block: > 50 µM (inactive)

Query block: Value lookup for GI50; key = O=C(CN1CCOCC1)c1ccc2c(c1)oc(=O)n2CCN1CCCCC1
Result block: > 100 µM (inactive)

Query block: Value lookup for GI50; key = CCCCCCSCC/C(C)=N\OC
Result block: > 100 µM (inactive)

Query block: Value lookup for GI50; key = O=C(CCC(=O)Nc1ccc(Cl)c(Cl)c1)CC(=O)c1ccc(F)cc1
Result block: > 100 µM (inactive)

Query block: Value lookup for GI50; key = COc1cc(C=C2C(=O)NC(=S)NC2=O)cc(OC)c1OC
Result block: > 100 µM (inactive)

----------
- Test system: OVCAR-4
- test-name: NCI tumour cell line growth inhibition, 48 h
Active and inactive are the calls of the source. Cut-off read from the data, not from the text of the source: active = GI50 up to about 1.1 µM and inactive = higher.
reported-endpoint: GI50

Query block: Value lookup for GI50; key = CCOC(=O)/C(=C/c1ccccc1)N(CC)CC
Result block: > 100 µM (inactive)

Query block: Value lookup for GI50; key = O=C1CCC(=O)N1Cc1ccccc1/N=[N+](\[O-])c1ccccc1CN1C(=O)CCC1=O
Result block: > 100 µM (inactive)

Query block: Value lookup for GI50; key = COC(=O)C1Cc2c([nH]c3ccccc23)-c2[nH]c3ccccc3c2CC(NC(C)=O)C(=O)NCC(=O)N1 (stereo not given)
Result block: > 100 µM (inactive)

Query block: Value lookup for GI50; key = COc1ccc(CN(O)C2C(CO)OC(n3cc(I)c(=O)[nH]c3=O)C2O)cc1 (stereo not given)
Result block: > 100 µM (inactive)

Query block: Value lookup for GI50; key = Nc1ccc(S(=O)(=O)Nc2nnc(S(N)(=O)=O)s2)cc1
Result block: > 100 µM (inactive)

----------
Consider the following compounds; for each one, report its GI50.
- System: HCT-15
Answer format: numeric, µM implied, no suffix.

Query block: Value lookup for GI50; key = COC(=O)/C=C\Sc1ccn(/C=C\C(=O)OC)c(=S)n1
Result block: 16.7

Query block: Value lookup for GI50; key = CCOC(=O)c1c(CN2CCNCC2)nc2ccccc2c1-c1ccccc1
Result block: 16.1

Query block: Value lookup for GI50; key = O=C(c1cccs1)N(C(=S)OCc1ccccn1)c1ccccc1
Result block: 53.2

----------
Consider the following compounds; for each one, report its GI50.
- Tested on: DMS-273
- test-name: NCI tumour cell line growth inhibition, 48 h
The source made the active and inactive calls. Rule as the data show it: active = GI50 up to about 1.1 µM and inactive = higher.

Query block: Value lookup for GI50; key = N=C(N)/N=C(/C=C/c1ccccc1)CC1OC(=O)c2ccccc21 (centres undefined)
Result block: > 100 µM (inactive)

Query block: Value lookup for GI50; key = Cc1cn(C2CC(O)C(CO)O2)c(=O)[nH]c1=O (centres undefined)
Result block: 3780 µM (inactive)

Query block: Value lookup for GI50; key = Cc1nn(-c2ccccc2)c(S)c1C(=O)c1ccccc1
Result block: 40.1 µM (inactive)

Query block: Value lookup for GI50; key = CCOC(=O)C1=C(Nc2ccccc2)SC/C1=N\NC(=O)Cc1ccccc1
Result block: > 100 µM (inactive)

----------
Consider the following molecules; for each one, report its GI50.
- Tested on: SK-MEL-28
- test-name: NCI tumour cell line growth inhibition, 48 h
Calls of active or inactive are those of the source. Cut-off read from the data, not from the text of the source: active = GI50 up to about 1.1 µM and inactive = higher. Where a SMILES comes first, the peptide text is derived from it. The star is where a group is joined. Cbz = O=C(OCc1ccccc1)*

Query block: Provide value of GI50 for this record tested with SK-MEL-28: S=C(N/N=C/c1ccccc1)NC1CC(c2ccccc2)Oc2ccccc21 (stereo not given)
Result block: 70 µM (inactive)

Query block: Provide value of GI50 for this record tested with SK-MEL-28: O=c1ccn(/C=C/C(O)C(O)CO)c(=O)[nH]1 (stereo not given)
Result block: > 100 µM (inactive)

Query block: Provide value of GI50 for this record tested with SK-MEL-28: CCOC(=O)CNC(=O)C(C)NC(=O)C(NC(=O)OCc1ccccc1)C(C)C (stereo not drawn) (Cbz-Val-Ala-Gly-OEt; configuration not given here)
Result block: > 100 µM (inactive)

Query block: Provide value of GI50 for this record tested with SK-MEL-28: CC1(C)CC(=O)c2c([nH]c(=S)c(C#N)c2-c2ccc(Br)cc2)C1
Result block: 44.1 µM (inactive)

Query block: Provide value of GI50 for this record tested with SK-MEL-28: COc1ccc2c(=O)c([Se]c3coc4cc(OC)ccc4c3=O)coc2c1
Result block: 52.1 µM (inactive)

Query block: Provide value of GI50 for this record tested with SK-MEL-28: CCOC(=O)C1(C)CCC(C(=O)OC)C1=O (stereo not given)
Result block: > 100 µM (inactive)

Query block: Provide value of GI50 for this record tested with SK-MEL-28: CN1C(=O)N(c2ccccc2)C2(CCN(CC3COc4ccccc4O3)CC2)C1=O (stereo not given)
Result block: > 100 µM (inactive)

Query block: Provide value of GI50 for this record tested with SK-MEL-28: COc1ccc(C2Oc3c(cccc3OC)C=C2[N+](=O)[O-])cc1 (stereo not given)
Result block: 1.91 µM (inactive)

Query block: Provide value of GI50 for this record tested with SK-MEL-28: CCCCCCCCCCCCCCCc1ccc(OCC(O)CO)cc1 (stereo not given)
Result block: 25.6 µM (inactive)

Query block: Provide value of GI50 for this record tested with SK-MEL-28: Cc1n[nH]c(=O)n1/N=C/c1ccc(Cl)cc1
Result block: > 100 µM (inactive)

----------
Consider the following molecules; for each one, report its GI50.
- System: M19-MEL
- test-name: NCI tumour cell line growth inhibition, 48 h
Calls of active or inactive are those of the source. No stated cut-off is given here; in the data, active = GI50 up to about 1.1 µM and inactive = higher.

Query block: Value lookup for GI50; key = O=C1CCC2(O)c3ccccc3C2Cc2ccccc21 (stereo not given)
Result block: > 100 µM (inactive)

Query block: Value lookup for GI50; key = C1=CC2SSSC2C1 (stereo not given)
Result block: > 100 µM (inactive)

Query block: Value lookup for GI50; key = O=C(Nc1ccc(Sc2ccc(/N=N/c3c(O)c(S(=O)(=O)O)cc4cc(S(=O)(=O)O)ccc34)cc2)cc1)c1ccc(/N=N/c2c(O)ccc3c(S(=O)(=O)O)cc(S(=O)(=O)O)cc23)cc1
Result block: 16.6 µM (inactive)

Query block: Value lookup for GI50; key = O=C(CO)CC(=O)C(=O)Nc1ccccc1
Result block: > 100 µM (inactive)

Query block: Value lookup for GI50; key = CCOC(=O)/C(=C/c1ccccc1)N(CC)CC
Result block: > 100 µM (inactive)

Query block: Value lookup for GI50; key = CSc1nc2c(c(O)c(C)c(=O)n2C2OCC(OC(C)=O)C(OC(C)=O)C2OC(C)=O)c(=O)n1C (stereo not given)
Result block: > 100 µM (inactive)

Query block: Value lookup for GI50; key = O=C1C(Cl)N(c2ccc(Cl)cc2)C1c1c[nH]c2ccccc12 (stereo not given)
Result block: 24.3 µM (inactive)

Query block: Value lookup for GI50; key = C/C=C1\CCC2c3[nH]c4ccccc4c3CCN2C1 (stereo not given)
Result block: > 100 µM (inactive)

Query block: Value lookup for GI50; key = COc1ccc2c(c1)[n+]([O-])c(C(=O)C/C(=N/OCCCc1ccccc1)C(=O)NC13CC4CC(CC(C4)C1)C3)c(C)[n+]2[O-]
Result block: > 100 µM (inactive)

Query block: Value lookup for GI50; key = O=C1CCN2CCC(=O)c3c2c(cc2ccccc32)N1
Result block: > 100 µM (inactive)
